experiment.description: Tmax in CD-1 mouse at 100 mg/kg, po by LC/MS/MS analysis
Assay type: ADME, organism-based
Parameters: dose 100 mg/kg, route oral
run.conditions: in vivo
measured.quantity: Tmax (h)
Response body: numeric value in h, unit text excluded.

Prompt: State its Tmax: Nc1ncnc2ccc(-c3ccnc(F)c3)nc12
Completion: 2.67

====

experiment.description: Cmax in CD-1 mouse at 50 mg/kg, po by LC/MS/MS analysis
Type: ADME, organism-based
Parameters: dose 50 mg/kg, route oral
run.conditions: in vivo
measured.quantity: Cmax (µM)
Number only, in µM; omit the unit.

Prompt: Provide one value: measured Cmax of Nc1ncnc2ccc(-c3ccnc(F)c3)nc12
Completion: 6.34

The reported measurements were obtained from ChEMBL document CHEMBL3259613.
